experiment: E. coli growth modulation, two-sided OD650, primary screen, E. coli filamentation project, strain DRC41, 24 h (AID 1093); conditions: OD650, 24 h, higher = more signal, called active from +8 up or from −8 down;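 further: MC1000 strain lacking acrAB efflux and sulA so SOS filamentation is blocked; test concentration not given here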
Reported z-score is given for each of the following compounds.
OBSERVATION_TYPE: z-score

• NCCCCCCNC(=O)[C@@H]1C[C@@H]2C(=O)N[C@@H](CCCCN)C(=O)N2[C@@H]1c1cccc(OCCO)c1 = 0.398
• CC(C)C[C@@H]1NC(=O)[C@@H]2C[C@H](C(=O)NCCCCCN)[C@H](c3ccc(O)cc3)N2C1=O = -0.687
• O=C1NC(=O)C2C1C=CC(C(O)c1c(F)cccc1Cl)N2Nc1ccc(Cl)cc1Cl (stereo unspecified) = -3.22
• COc1ccc(NC(=O)O[C@H]2[C@H](OC(=O)Nc3ccccc3)[C@@H](OC(=O)Nc3ccccc3)[C@@H](OC)O[C@@H]2CO)cc1 = -0.633
• NC(=O)N1C(=O)C2C(C1=O)C1C=C(CCCO)C2C(c2cccs2)N1Cc1cccc(OC(F)(F)F)c1 (stereo unspecified) = 0.56
• O=C1c2ccccc2[C@](Cc2ccccc2I)(C(=O)NCC(F)(F)F)[C@H](c2ccc(CO)cc2)N1C1CCCCC1 = 1.38
• Cc1ccc(S[C@]2(C(=O)NCC(F)(F)F)CC(=O)N(C3CCCCC3)[C@@H]2c2ccc(CO)cc2I)cc1 = 0.312
• CCOC(=O)C1=CC[C@@H](c2cccc(Cl)c2)N(S(=O)(=O)c2ccc(C)cc2)C1 = -0.363
• CN(C)CCCCNC(=O)[C@@H]1C[C@@H]2C(=O)N[C@@H](Cc3ccccc3)C(=O)N2[C@@H]1c1cccc(OCCO)c1 = 2.67
• C=C(/C(=C/C[C@H](OC(C)=O)c1cccc(OCCO)c1)c1cnc2ccccc2c1)C(C)C = 0.172
• Cc1cc(C)cc(N2C(=O)CSC2c2cccc([N+](=O)[O-])c2)c1 (stereo unspecified) = 1.58

---

target: Left-right determination factor 2 (Homo sapiens); assay: LEFTY2 binders on small-molecule microarrays, primary screen, biochemical, small-molecule microarray, 635 nm fluorescence scan (AID 1110); details: LEFTY2 binding, higher = more signal
Reported composite z-score is given for each of the following compounds.
OBSERVATION_TYPE: composite z-score

* COc1ccc([Si](C)(C)[C@@H]2[C@@H](CC(=O)N(CCO)Cc3ccccc3)O[C@]3(C(=O)N(c4ccccc4)c4ccccc43)[C@H]2C)cc1 | 0.739
* CCOC(=O)C1=C[C@@H](c2ccccc2)N(S(=O)(=O)c2ccc(C)cc2)[C@H]1c1ccccc1Cl | 0.553
* COC(=O)[C@@]1(Cc2ccccc2)[C@H]2c3cc(C(=O)N(C)C)n(CCc4ccc(O)c(OC)c4)c3C[C@H]2CN1C(=O)c1ccccc1 | 0.38
* COc1ccc([Si](C)(C)[C@@H]2[C@@H](CCn3cc([C@H](O)c4ccccc4)nn3)O[C@]3(C(=O)N(Cc4ccc(N5CCC5=O)cc4)c4ccccc43)[C@H]2C)cc1 | -0.309

---

target: Streptavidin (Streptomyces avidinii) (UniProt P22629); assay: streptavidin binders on small-molecule microarray, primary screen, artefact control for SMM compound annotation, biophysical, 635/667 nm fluorescence (AID 1147); conditions: streptavidin binding, higher = more signal;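 further: signal reflects streptavidin binding to arrayed compounds as a control protein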
Sequence (P22629 whole entry, looked up): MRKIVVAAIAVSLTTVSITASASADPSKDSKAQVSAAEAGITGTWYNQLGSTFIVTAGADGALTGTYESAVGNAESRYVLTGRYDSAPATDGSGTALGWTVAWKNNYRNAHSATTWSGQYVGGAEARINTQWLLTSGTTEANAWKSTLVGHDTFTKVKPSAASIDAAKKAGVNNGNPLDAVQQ
OBSERVATION_TYPE: composite z-score

• COC(=O)[C@@]1(Cc2ccc(F)cc2)[C@H]2c3cc(C(=O)N(C)C)n(Cc4cc(F)cc5c4OCOC5)c3C[C@H]2CN1C(=O)c1ccccc1 = 1.15
• C[C@]1(C(=O)NC2CC2)c2ccccc2C(=O)N(Cc2ccccc2)[C@H]1c1ccc(CO)cc1 = -0.854
• CCCCCCc1nc(-c2cc(C)c(OC)c(C)c2)c(C)c2c1[Si](C(C)C)(C(C)C)OC2 = 0.273
• C=CCC(OC(C)=O)[C@@H]1[C@@H](N(Cc2cc3ccccc3o2)C(=O)Cc2ccc(F)cc2)c2cc(OCCCO)ccc2N1C(=O)c1ccc2ccccc2c1 (stereo partly specified) = 0.0943
• NC(=O)NCC#Cc1ccc2c(c1)[C@]1(C(=O)N2)[C@H](C(=O)NC[C@H](O)c2ccccc2)[C@H]2C(=O)O[C@H](c3ccccc3)[C@H](c3ccccc3)N2[C@@H]1c1ccc(OCCO)cc1 = 0.661
• C=CCOC(=O)[C@H]1[C@@H]2C(=O)O[C@@H](c3ccccc3)[C@@H](c3ccccc3)N2[C@@H](c2ccc(OCCOC(=O)[C@H]3C[C@H]4C(=O)N[C@@H](CCCCNC(C)=O)C(=O)N4[C@H]3c3ccc(O)cc3)cc2)[C@]12C(=O)Nc1ccccc12 = -0.292
• OCCCC1=CC(c2ccc(CN3CCCC3)cc2)N(Cc2sc3ccccc3c2Cl)CC1 (stereo unspecified) = 0.37
• C=C(C)[C@@H]1CC=C(C(O)C2C=CC3C(=O)N(c4ccccc4)C(=O)C3N2Nc2ccccc2F)CC1 (stereo partly specified) = 1.31
• CCCC[C@@H]1C[C@H]1[C@@H](NC(=O)c1ccccc1)c1ccc(C(F)(F)F)cc1 = 0.056
• COC(=O)c1nc2oc1CC[C@@H](CO)NC(=O)N(C)Cc1cnnn1C[C@H](Cc1ccccc1)NC2=O = -0.65
• C=C(/C(=C/C[C@@H](OC(C)=O)c1cccc(OCCO)c1)c1cc(C(=O)OC)ccc1OC)C(C)C = -0.19
• COCCOC(=O)N1C(=O)[C@@]2(c3cc(C#CC4=CCCCC4)ccc31)[C@H](C(=O)N1CCCCCCC1)[C@H]1C(=O)O[C@H](c3ccccc3)[C@H](c3ccccc3)N1[C@@H]2c1ccc(O)cc1 = 0.0947
• COc1ccc([Si](C)(C)[C@@H]2[C@@H](CCO)O[C@]3(C(=O)N(Cc4ccc(N5CCCCC5=O)cc4)c4ccccc43)[C@H]2C)cc1 = 0.269
• COC(=O)Cn1c(C(=O)N(C)C)cc2c1C[C@H]1CN(C(=O)c3ccccc3)[C@@](Cc3ccc(F)cc3)(C(=O)OC)[C@@H]21 = 0.124
• NC(N)=NCCCn1cc(CNC(=O)[C@@H](N)Cc2ccccc2)nn1 = -0.298
• CCOC(=O)c1ccc(NC(=O)O[C@H]2[C@H](OC(=O)Nc3ccc4c(c3)OCO4)[C@H](OC(=O)Nc3ccc4c(c3)OCO4)[C@@H](OC)O[C@@H]2CO)cc1 = 0.245
